test system: MCF7 breast; test: NCI tumour cell line growth inhibition, 48 h
MEASURE_NAME: TGI

Worked examples, 5 compounds total:
# COMPOUND, MEASURE_NAME, RESULT
data = [
    ("CSc1n[nH]c(N)c1C(=O)Nc1ccc(C)cc1", "TGI", "> 100 µM"),
    ("O=C(c1cc(Cl)ccc1Cl)N1CCN(C(=O)c2cc(Cl)ccc2Cl)CC1", "TGI", "> 100 µM"),
    ("C=C1C(=O)OC2/C=C(/C)C(OC(C)=O)CC(O)/C(C)=C\\C(OC(=O)/C(C)=C\\C)C12 (stereo unspecified)", "TGI", "> 100 µM"),
    ("CC1(C)CC(C)(C)C1=NNC(N)=O", "TGI", "> 100 µM"),
    ("Cc1c2c(n(CCc3ccc(Cl)cc3)c1C)NC(c1ccccc1)C(C#N)S2(=O)=O (stereo unspecified)", "TGI", "> 60.1 µM"),
]

Lab note: next compound to report on.
What TGI value was documented for this compound, CN(C)c1nc2oc(-c3ccccc3)c(-c3ccccc3)c2c2nnnn12 ?
> 100 µM

----------
tested on: SK-MEL-28 melanoma; experiment: NCI tumour cell line growth inhibition, 48 h
MEASURE_NAME: TGI

Some compounds with known TGI results, for comparison:
# TEST_SMILES, TGI
records = [
    ("CN(C(=O)c1ccco1)C(=S)N1CCN(c2ccccc2)CC1", "> 100 µM"),
    ("COc1ccc2c(c1)c(CC(=O)O)c(C)n2C(=O)c1ccc(Cl)cc1", "> 100 µM"),
]

Turning now to a further record.
Request body: readout TGI, system SK-MEL-28 melanoma, query COc1cc2cc[n+]3c(C)c4cc(OC)c(OC)cc4c([O-])c3c2cc1OC . Return the value.
> 100 µM

----------
Known TGI of a selection of compounds
system: ACHN renal; experiment: NCI tumour cell line growth inhibition, 48 h

Consider the worked cases shown below.
# COMPOUND, RESULT
measured = [
    ("CCOC(=O)c1cnc2oc3ccc(O)cc3c2c1-c1ccccc1", "> 100 µM"),
    ("COc1ccc(OC)c2c1C(=O)C1CC1(Br)C2=O (stereo not drawn)", "> 100 µM"),
]

Could you now look at the following compound, please?
Suppose we examine the compound O=c1ccn(CC2(CO)CC(Cc3ccccc3)C2)c(=O)[nH]1 (stereo not drawn) ; what TGI value has been reported?
> 100 µM

----------
test system: SF-539 CNS; assay: NCI tumour cell line growth inhibition, 48 h
Label t when TGI is at or above 10 µM; anything below gets f.

Reference set, count: 8
# COMPOUND, TESTED_ON, CLASS_ASSIGNMENT
measured = [
    ("COc1cc(C2C(Cl)C(=O)N2NC(=O)c2ccc(N)cc2)ccc1O (stereo not given)", "SF-539 CNS", "t"),
    ("CC1(O)CC(=O)c2c(cc3ccc(-c4c5c(c(O)c6c(O)cccc46)C(=O)CC(C)(O)C5)c(O)c3c2O)C1 (stereo not given)", "SF-539 CNS", "f"),
    ("CCNC(=O)c1cc(/C=C/c2ccc([N+](=O)[O-])o2)nc2ccccc12", "SF-539 CNS", "t"),
    ("CC1=NN(c2nc(N)nc(/C(C#N)=C/c3cccn3-c3cc(Cl)cc(Cl)c3)n2)C(C)(C)C1", "SF-539 CNS", "t"),
    ("CCCOC(=O)N1CCN(/[N+]([O-])=N/Oc2ccc([N+](=O)[O-])cc2[N+](=O)[O-])CC1", "SF-539 CNS", "f"),
    ("O=c1c2cc(I)ccc2nc(-c2cccs2)n1-c1ccc(O)cc1", "SF-539 CNS", "t"),
    ("O=c1oc2ccccc2cc1-c1cn2cc(Cl)ccc2n1", "SF-539 CNS", "t"),
    ("COC(=O)C1=C(c2cc(OC)c(OC)c(OC)c2)OC(c2ccc(OC)c(OC)c2)C1 (stereo not given)", "SF-539 CNS", "t"),
]

Could you verify whether the entry CCOC(=O)c1cnc2oc3ccc(O)cc3c2c1-c1ccccc1 shows TGI of no less than 10 µM?
t

Does TGI meet or surpass 10 µM for O=C(c1cc(Cl)ccc1Cl)N1CCN(C(=O)c2cc(Cl)ccc2Cl)CC1 ?
t
